Target: T1, Recombinant Human DLL4 (human, UniProt Q9NR61 27-524)
T1 construct: Bought recombinant human DLL4 (R&D Systems Cat#1506-D4/CF); also called delta-like protein 4; Delta-like 4
Assay: ELISA, DLL4 coated on the plate, Fab at 100 nM, signal minus blank
reported property: ELISA Signal-blank (100 nM Fab)
API doc: respond with a numeric literal and nothing else, no unit.

binder	reported property	quantitative result
Fab VH5-51_IGHD5-18*01>3_IGHJ4*01 G100K/G104T G24T/S28R/G35V (H:KT TRV) & V3-4_IGLJ1*01 V91T (Fab, V domains shown, Fab; expressed from plasmid A (CH1, His6 and Flag tags) and plasmid E (lambda CL)) VH: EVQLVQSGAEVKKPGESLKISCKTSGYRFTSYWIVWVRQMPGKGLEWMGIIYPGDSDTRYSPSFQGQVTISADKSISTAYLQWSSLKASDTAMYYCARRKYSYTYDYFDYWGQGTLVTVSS VL: QTVVTQEPSFSVSPGGTVTLTCGLSSGSVSTSYYPSWYQQTPGQAPRTLIYSTNTRSSGVPDRFSGSILGNKAALTITGAQADDESDYYCTLYMGSGISYVFGTGTKVTVL	ELISA Signal-blank (100 nM Fab)	0.197

Query binder follows.
Which ELISA Signal-blank (100 nM Fab) is reported for this binder? Fab VH5-51_IGHD5-18*01>3_IGHJ4*01 G100K/G104T G24T/S28R/G35V (H:KT TRV) & V3-4_IGLJ1*01 V91N (Fab, V domains shown, Fab; expressed from plasmid A (CH1, His6 and Flag tags) and plasmid E (lambda CL)) VH: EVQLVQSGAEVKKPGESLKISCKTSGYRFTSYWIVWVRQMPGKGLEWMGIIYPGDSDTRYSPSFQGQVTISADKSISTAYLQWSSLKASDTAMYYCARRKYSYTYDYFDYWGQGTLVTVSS VL: QTVVTQEPSFSVSPGGTVTLTCGLSSGSVSTSYYPSWYQQTPGQAPRTLIYSTNTRSSGVPDRFSGSILGNKAALTITGAQADDESDYYCNLYMGSGISYVFGTGTKVTVL
0.203
